// data source = patent US7709471B2

target: recombinant Plk1 (Homo sapiens); experiment: In Vitro Plk1 Enzyme Assay (SPA, GST-Cdc25C phosphorylation); settings: ATP 64 nM, 90 minutes, read-out: IC50 (Plk1 enzyme inhibition)
pIC50: −log10 of the molar value.
Measured pIC50, listed per entry for reference.

COMPOUND	pIC50
COc1cc(C(=O)NC2CCN(C)CC2)ccc1Nc1ncc2c(n1)N(CC1CC1)CCC(=O)N2C [Example 213]	> 6.52
CCc1ccccc1Nc1ncc2c(n1)N(C1CCCC1)CCC(=O)N2C [Example 143]	> 6.00
COc1cc(C(=O)NC2CCN(C(C)C)CC2)ccc1Nc1ncc2c(n1)N(C1CCCC1)CCC(=O)N2C [Example 49]	> 6.52
COc1cc(C(=O)NC2CC3CCC(C2)N3C)ccc1Nc1ncc2c(n1)N(C1CCCC1)CCC(=O)N2C (stereo not shown) [Example 71]	> 6.52
CSc1ccccc1Nc1ncc2c(n1)N(C1CCCC1)CCC(=O)N2C [Example 141]	> 4.00
CN1C(=O)CCN(C2CCCC2)c2nc(Nc3cc(F)c(C(=O)N[C@@H]4CCNC4)cc3Cl)ncc21 [Example 321]	> 6.52
CN1C(=O)CCN(C2CCCC2)c2nc(Nc3ccc(C(=O)NCCN4CCCC4)cc3Cl)ncc21 [Example 318]	> 6.52
COc1cc(C(=O)N[C@H]2[C@@H]3CN(C(=O)OCc4ccccc4)C[C@@H]32)ccc1Nc1ncc2c(n1)N(C1CCCC1)CCC(=O)N2C [Example 51]	> 4.00
CC(C)N1CCC(=O)N(C)c2cnc(Nc3ccc(C(=O)NC4CCN(C)CC4)cc3Cl)nc21 [Example 203]	> 6.52
COc1cc(C(=O)NC2CCN(C)CC2)ccc1Nc1ncc2c(n1)N(c1ccccc1)CCC(=O)N2C [Example 221]	> 6.52
CN(C)CCCNC(=O)c1ccc(Nc2ncc3c(n2)N(C2CCCC2)CCC(=O)N3C)c(Cl)c1 [Example 317]	> 6.52
CCOc1cccc(Nc2ncc3c(n2)N(C2CCCC2)CCC(=O)N3C)c1 [Example 162]	> 6.00
CCN1CC[C@@H](NC(=O)c2ccc(Nc3ncc4c(n3)N(C3CCCC3)CCC(=O)N4C)c(OC)c2)C1 [Example 326]	> 6.52
CN1C(=O)CCN(C2CCCC2)c2nc(Nc3ccccc3S(N)(=O)=O)ncc21 [Example 145]	> 4.00
COc1cc(C(=O)NC2C[C@H]3CCC[C@@H](C2)N3C)ccc1Nc1ncc2c(n1)N(C1CCCCC1)CC1(CC1)C(=O)N2C (stereo partly shown) [Example 432]	> 6.52
CN1CCC(NC(=O)c2ccc(Nc3ncc4c(n3)N(C3CCCC3)CCC(=O)N4C)c(Cl)c2)CC1 [Example 185]	> 6.52

====

target: recombinant Plk1 (Homo sapiens, UniProt P53350); assay: In Vitro Plk1 Enzyme Assay (SPA, GST-Cdc25C phosphorylation); details: ATP 64 nM, 90 minutes, read-out: IC50 (Plk1 enzyme inhibition)
Sequence (P53350 whole entry): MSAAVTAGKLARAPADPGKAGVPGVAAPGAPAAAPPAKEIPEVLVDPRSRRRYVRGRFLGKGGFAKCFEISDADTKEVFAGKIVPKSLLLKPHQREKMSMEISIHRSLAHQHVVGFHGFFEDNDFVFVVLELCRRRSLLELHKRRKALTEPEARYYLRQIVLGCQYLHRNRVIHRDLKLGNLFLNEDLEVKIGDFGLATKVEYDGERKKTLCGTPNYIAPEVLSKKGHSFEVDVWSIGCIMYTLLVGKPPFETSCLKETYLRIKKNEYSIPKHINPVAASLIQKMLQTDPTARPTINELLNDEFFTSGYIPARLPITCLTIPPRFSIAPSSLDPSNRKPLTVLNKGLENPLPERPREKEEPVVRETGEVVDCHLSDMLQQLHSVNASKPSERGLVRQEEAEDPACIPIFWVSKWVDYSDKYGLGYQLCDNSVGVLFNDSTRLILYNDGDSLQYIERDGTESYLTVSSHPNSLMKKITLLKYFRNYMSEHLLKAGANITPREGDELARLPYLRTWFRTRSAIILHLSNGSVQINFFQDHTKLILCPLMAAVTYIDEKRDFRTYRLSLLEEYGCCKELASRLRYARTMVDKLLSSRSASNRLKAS
pIC50: −log10 of the molar value.
Recorded pIC50 values for a group of molecules are listed next.

MOLECULE	pIC50
CN1CCC(NC(=O)c2c(F)cc(Nc3ncc4c(n3)N(C3CCCC3)CCC(=O)N4C)cc2F)CC1 [Example 187]	> 4.00
CNC(=O)c1ccc(Nc2ncc3c(n2)N(C2CCCC2)CCC(=O)N3C)c(OCCOC)c1 [Example 196]	> 6.00
CN1C(=O)CCN(C2CCCC2)c2nc(Nc3ccc(C(=O)NC4CCCCC4)cc3)ncc21 [Example 89]	> 6.00
CN(C)CC(C)(C)CNC(=O)c1ccc(Nc2ncc3c(n2)N(C2CCCC2)CCC(=O)N3)cc1 [Example 253]	> 4.00
COc1cc(C(=O)NCCN2CCOCC2)ccc1Nc1ncc2c(n1)N(C1CCCC1)CCC(=O)N2C [Example 13]	> 6.52
CC(C)c1ccccc1Nc1ncc2c(n1)N(C1CCCC1)CCC(=O)N2C [Example 150]	> 6.00
COc1cc(C(=O)NC2CCN(C)CC2)ccc1Nc1ncc2c(n1)N(C1CCCC1)CC(C)(C)C(=O)N2C [Example 235]	> 6.52
CN1C(=O)CCN(C2CCCC2)c2nc(Nc3ccccc3CN3CCOCC3)ncc21 [Example 160]	> 4.00
COc1cc(C(=O)NC2CC(C)(C)N(C)C(C)(C)C2)ccc1Nc1ncc2c(n1)N(C1CCCC1)CCC(=O)N2C [Example 72]	> 6.52
COc1cc(C(=O)NCCN2CCC(F)(F)CC2)ccc1Nc1ncc2c(n1)N(C1CCCC1)CCC(=O)N2C [Example 37]	> 6.00
COc1cc(C(=O)NC2CCC(N(C)C)CC2)ccc1Nc1ncc2c(n1)N(C1CCCC1)CCC(=O)N2C (stereo not drawn) [Example 60]	> 6.52
COc1cc(C(=O)NCCN2CCOCC2)ccc1Nc1ncc2c(n1)N(C(C)C)CCC(=O)N2C [Example 219]	> 6.52
CN1C(=O)CCN(C2CCCC2)c2nc(Nc3ccc(C(=O)NCCN4CCOCC4)cc3Cl)ncc21 [Example 184]	> 6.00
CN1CCC(NC(=O)c2ccc(Nc3ncc4c(n3)N(C3CCCC3)CC(C)(C)C(=O)N4C)cc2)CC1 [Example 245]	> 6.52
CNCCCNC(=O)c1ccc(Nc2ncc3c(n2)N(C2CCCC2)CCC(=O)N3C)c(OC)c1 [Example 44]	> 6.52
COc1cc(NCCN(C)C)ccc1Nc1ncc2c(n1)N(C1CCCC1)CCC(=O)N2C [Example 107]	> 6.00
CN1CCC(NC(=O)c2cnc(Nc3ncc4c(n3)N(C3CCCC3)CCC(=O)N4C)s2)CC1 [Example 263]	> 4.00
COc1cc(C(=O)NCC2(CN3CCCC3)CC2)ccc1Nc1ncc2c(n1)N(C1CCCC1)CCC(=O)N2C [Example 83]	> 6.52
CN(C)CCNC(=O)c1ccc(Nc2ncc3c(n2)N(C2CCCC2)CCC(=O)N3C)c(Cl)c1 [Example 315]	> 6.52
COc1cc(C(=O)NCC(C)(C)N2CCCCC2)ccc1Nc1ncc2c(n1)N(C1CCCC1)CCC(=O)N2C [Example 75]	> 6.52
COc1cc(C(=O)NCCCN2CCCCC2)ccc1Nc1ncc2c(n1)N(C1CCCC1)CCC(=O)N2C [Example 69]	> 6.52
CC(=O)Nc1cccc(Nc2ncc3c(n2)N(C2CCCC2)CCC(=O)N3C)c1 [Example 177]	> 4.00
CN1CCC(NC(=O)c2ccc(Nc3ncc4c(n3)N(C3CCCC3)CCC(=O)N4)cc2)CC1 [Example 254]	> 4.00
CC(C)c1cccc(Nc2ncc3c(n2)N(C2CCCC2)CCC(=O)N3C)c1 [Example 174]	> 4.00
CCC1CN(C2CCCC2)c2nc(Nc3ccc(C(=O)NC4CCN(C)CC4)cc3OC)ncc2N(C)C1=O (single isomer, unassigned) [Example 236]	> 6.52
COc1cc(C(=O)NC2CCN(C(=O)OC(C)(C)C)CC2)ccc1Nc1ncc2c(n1)N(C1CCCC1)CCC(=O)N2C [Example 50]	> 4.00
CN1C(=O)CCN(C2CCCC2)c2nc(Nc3ccc(OCCN4CCOCC4)cc3)ncc21 [Example 135]	> 4.00
COc1cc(C(=O)N[C@@H]2CCN(C)C2)ccc1Nc1ncc2c(n1)N(C1CCCC1)CCC(=O)N2C [Example 62]	> 6.52
COc1cc(C(=O)NC2CCN(C)CC2)ccc1Nc1ncc2c(n1)N(C1CCCC1)CC(C)C(=O)N2C (single isomer, unassigned) [Example 240]	> 6.52
COc1cc(C(=O)NC2CCN(C)CC2)c(F)cc1Nc1ncc2c(n1)N(C1CCCC1)CCC(=O)N2C [Example 48]	> 6.52

====

target: recombinant Plk1 (Homo sapiens, UniProt P53350); assay: In Vitro Plk1 Enzyme Assay (SPA, GST-Cdc25C phosphorylation); conditions: ATP 64 nM, 90 minutes, read-out: IC50 (Plk1 enzyme inhibition)
pIC50: −log10 of the molar value.

CHEMICAL_SMILES	pIC50
COc1cc(C(=O)NC2CCN(C)CC2)ccc1Nc1ncc2c(n1)N(CC(C)C)CCC(=O)N2C	> 6.52
CCN1CCC(NC(=O)c2ccc(Nc3ncc4c(n3)N(C3CCCCC3)CC3(CC3)C(=O)N4C)c(OC)c2)CC1	> 4.00
COc1cc(C(=O)N[C@H]2CCN(C)C2)ccc1Nc1ncc2c(n1)N(C1CCCC1)CCC(=O)N2C	> 6.52
COc1cc(C(=O)NCCN2CC3CCC(C2)O3)ccc1Nc1ncc2c(n1)N(C1CCCC1)CCC(=O)N2C	> 6.00
Cc1cc(C(=O)NC2CCN(C)CC2)ccc1Nc1ncc2c(n1)N(C1CCCC1)CCC(=O)N2C	> 6.52
CCN(CC)CCCNC(=O)c1ccc(Nc2ncc3c(n2)N(C2CCCC2)CCC(=O)N3C)c(OC)c1	> 6.52
CC(C)N1CCC(=O)N(C)c2cnc(Nc3ccc(C(=O)NCCN4CCOCC4)cc3)nc21	> 6.52
CN1C(=O)CCN(C2CCCC2)c2nc(Nc3cccc(OCCN4CCOCC4)c3)ncc21	> 4.00
